# Assayed system: hASIC1a comprising amino acids 12–478 with a Strep Tag II in the N-terminus (human, UniProt P78348-2)
# Sequence (P78348 12-478): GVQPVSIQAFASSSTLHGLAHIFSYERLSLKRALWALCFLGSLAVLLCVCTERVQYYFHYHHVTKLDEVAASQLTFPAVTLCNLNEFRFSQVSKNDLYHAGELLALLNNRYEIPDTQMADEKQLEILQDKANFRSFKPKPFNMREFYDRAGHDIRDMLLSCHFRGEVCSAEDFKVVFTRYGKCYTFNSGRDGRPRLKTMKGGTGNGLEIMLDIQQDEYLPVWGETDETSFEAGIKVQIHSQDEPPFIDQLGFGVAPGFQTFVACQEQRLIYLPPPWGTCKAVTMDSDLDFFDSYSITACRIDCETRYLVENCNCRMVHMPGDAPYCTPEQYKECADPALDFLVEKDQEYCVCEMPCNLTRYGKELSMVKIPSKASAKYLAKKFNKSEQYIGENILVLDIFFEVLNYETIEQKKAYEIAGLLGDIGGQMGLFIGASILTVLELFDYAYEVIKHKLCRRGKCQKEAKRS
Reported metric: binding result

B11 (VHH) VHH: QLQLVESGGGLVQPGGSLRLSCAASGLTLDNYAIGWFRQVPGKEREDVSCISTSHGSLHYANSVKGRFTISVDAAENTVYLQMNSLNAEDTAVYFCAARGFDSDCSVYGMDFWGKGTPVTVSS = binds
G4 (VHH) VHH: QLQLVESGGGLVQPGGSLRLTCAASGFALDDYTIGWFRQAPGNEREGVACMHGGGIHIADSLKGRITISRDNAKNTVYLQMNSLKPEDTAVYYCAARLATATRWTCKLSDMDYWGKGTLVTVSS = binds
